solubility values for the molecules below.
PROCEDURE SUMMARY: Aqueous solubility at neutral pH
Assay type: physicochemical
PARAMETER MEASURED: solubility

C=C(NC(=O)c1csc(-c2nc3c(cc2OCOP(=O)(O)O)-c2nc(cs2)C(=O)N[C@@H]([C@@H](C)O)C(=O)N/C(=C(\C)OC)c2nc(cs2)C(=O)N[C@@H]2c4nc(cs4)C(=O)N[C@@H](COC(=O)c4c5c6c(cccc6n4OCOP(=O)(O)O)COC(=O)[C@@H](O[C@H]4C[C@](C)(O)[C@H](N(C)C)[C@H](C)O4)[C@H]2OC5)c2nc-3cs2)n1)C(N)=O :: > 2000 µg/mL
C=C(NC(=O)c1csc(-c2nc3c(cc2O)-c2nc(cs2)C(=O)N[C@@H]([C@@H](C)O)C(=O)N/C(=C(\C)OC)c2nc(cs2)C(=O)N[C@@H]2c4nc(cs4)C(=O)N[C@@H](COC(=O)c4c5c6c(cccc6n4OCOP(=O)(OC(C)(C)C)OC(C)(C)C)COC(=O)[C@@H](O[C@H]4C[C@](C)(O)[C@H](N(C)C)[C@H](C)O4)[C@H]2OC5)c2nc-3cs2)n1)C(N)=O :: > 2000 µg/mL
C=C(NC(=O)c1csc(-c2nc3c(cc2OCCCS(=O)(=O)O)-c2nc(cs2)C(=O)N[C@@H]([C@@H](C)O)C(=O)N/C(=C(\C)OC)c2nc(cs2)C(=O)N[C@@H]2c4nc(cs4)C(=O)N[C@@H](COC(=O)c4c5c6c(cccc6n4OCCCS(=O)(=O)O)COC(=O)[C@@H](O[C@H]4C[C@](C)(O)[C@H](N(C)C)[C@H](C)O4)[C@H]2OC5)c2nc-3cs2)n1)C(N)=O :: > 2000 µg/mL
C=C(NC(=O)c1csc(-c2nc3c(cc2O)-c2nc(cs2)C(=O)N[C@@H]([C@@H](C)O)C(=O)N/C(=C(\C)OC)c2nc(cs2)C(=O)N[C@@H]2c4nc(cs4)C(=O)N[C@@H](COC(=O)c4c5c6c(cccc6n4OCCC(=O)O)COC(=O)[C@@H](O[C@H]4C[C@](C)(O)[C@H](N(C)C)[C@H](C)O4)[C@H]2OC5)c2nc-3cs2)n1)C(N)=O :: ~70 µg/mL

Cited source for all entries: ChEMBL document CHEMBL1146687
